These data points were gathered from patent US20190315814A1.

Test system: Clostridium difficile UNT103-1
Assay: Non-cannulated Syrian hamster C. difficile infection model, oral gavage
Type: in vivo, Golden Syrian hamsters
Details: oral gavage TID Days 2-6; vancomycin 20 mg/kg once a day
RESULT TYPE: Percent Survival at Day-22

Entry C=C1NC(=O)[C@H](Cc2c[nH]c3ccccc23)NC(=O)[C@H](NC(=O)[C@H](CCCCN)NC(=O)[C@@H](N)[C@@H](C)CC)CSC[C@@H](C(=O)N[C@H]2C(=O)N3CCC[C@H]3C(=O)NCC(=O)N[C@H](C(=O)N[C@@H](C)C(=O)N[C@@H](CC(N)=O)C(=O)NC(=CC)C(=O)NCC(=O)N[C@@H]3CSC[C@@H]4NC(=O)[C@H](Cc5ccccc5)NC(=O)[C@@H](CS/C=C\NC4=O)NC(=O)[C@H](CC(N)=O)NC(=O)[C@H](Cc4ccccc4)NC3=O)CS[C@H]2C)NC(=O)[C@H](CC(C)C)NC1=O [F1I R13N Y20F] , Percent Survival at Day-22 reported as 83%

----------
Settings: simulated gi fluid, FaSSIF + 1% pancreatin + 3 μg/ml trypsin + 3 μg/ml chymotrypsin half-life
RESULT TYPE: half-life

Entry C=C1NC(=O)[C@H](Cc2c[nH]c3ccccc23)NC(=O)[C@H](NC(=O)[C@H](CCCCN)NC(=O)[C@@H](N)[C@@H](C)CC)CSC[C@@H](C(=O)N[C@H]2C(=O)N3CCC[C@H]3C(=O)NCC(=O)N[C@H](C(=O)N[C@@H](C)C(=O)N[C@@H](CC(=O)O)C(=O)NC(=CC)C(=O)NCC(=O)N[C@@H]3CSC[C@@H]4NC(=O)[C@H](Cc5ccc(O)cc5)NC(=O)[C@@H](CS/C=C\NC4=O)NC(=O)[C@H](CC(N)=O)NC(=O)[C@H](Cc4ccccc4)NC3=O)CS[C@H]2C)NC(=O)[C@H](CC(C)C)NC1=O [F1I R13D] , half-life reported as > 12 h
